Data provenance is patent US5646159A.

# testedSystem: topoisomerase I (Bos taurus, UniProt F1MN93)
# Sequence (F1MN93 1-767): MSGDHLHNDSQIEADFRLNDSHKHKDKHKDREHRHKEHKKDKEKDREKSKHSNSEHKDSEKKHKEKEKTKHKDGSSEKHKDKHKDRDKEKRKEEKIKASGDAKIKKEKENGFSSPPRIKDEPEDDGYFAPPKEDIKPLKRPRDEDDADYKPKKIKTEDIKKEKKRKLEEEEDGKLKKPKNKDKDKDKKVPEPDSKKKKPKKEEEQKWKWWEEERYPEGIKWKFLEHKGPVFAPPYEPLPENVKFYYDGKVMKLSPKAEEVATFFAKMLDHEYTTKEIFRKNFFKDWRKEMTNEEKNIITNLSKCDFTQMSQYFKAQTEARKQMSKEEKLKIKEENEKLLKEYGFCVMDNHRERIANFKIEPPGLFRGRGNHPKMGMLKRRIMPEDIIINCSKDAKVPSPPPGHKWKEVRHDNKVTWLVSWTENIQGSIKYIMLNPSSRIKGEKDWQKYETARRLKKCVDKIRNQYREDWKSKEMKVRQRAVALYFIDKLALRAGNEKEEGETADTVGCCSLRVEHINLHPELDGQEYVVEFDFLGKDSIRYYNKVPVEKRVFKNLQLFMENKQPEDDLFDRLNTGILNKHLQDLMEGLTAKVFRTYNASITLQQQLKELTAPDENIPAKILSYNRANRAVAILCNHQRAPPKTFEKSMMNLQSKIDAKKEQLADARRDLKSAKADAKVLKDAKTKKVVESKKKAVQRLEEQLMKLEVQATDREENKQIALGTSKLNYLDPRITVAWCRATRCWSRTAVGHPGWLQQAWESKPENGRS
# testMethodNotes: Cleavable complex assay (topoisomerase I inhibition)
# testSettings: S.E. in own column, read-out: IC50, minimum drug concentration that inhibited the cleavable complex formation by 50%
reportedMetric: IC50 (nM)

CCC1(OC(=O)CN)C(=O)OCc2c1cc1n(c2=O)Cc2cc3cc4c(cc3nc2-1)OCO4 (racemic) = 430
